- Tested on: ENR+CD organoids (ISC to Paneth cell differentiation)
- assayExplanation: Primary screen: basal (non-stimulated) lysozyme secretion LYZ.NS, 2.5-D 384-well ENR+CD organoid differentiation
- Format: cell-based, mouse
- experimentalParameters: primary screen, dose 0.40 uM
Provide the recorded Z.LYZ.NS (standard z score) for the entries that follow.
Please respond with just the number, no unit label.

Given `COc1cc2c(Nc3ccc(NC(=O)c4ccccc4)cc3)ncnc2cc1OCCCN1CCOCC1` , state its recorded Z.LYZ.NS (standard z score). 0.932

Given `CNC(=O)[C@H](Cc1c[nH]c2ccccc12)NC(=O)[C@@H](CC(=O)NO)CC(C)C` , state its recorded Z.LYZ.NS (standard z score). −0.092

Given `C[C@@H]1COCCN1c1cc(C2(S(C)(=O)=O)CC2)nc(-c2cccc3[nH]ccc23)n1` , state its recorded Z.LYZ.NS (standard z score). −1.222

###

- Tested on: ENR+CD organoids (ISC to Paneth cell differentiation)
- assayExplanation: Primary screen: basal (non-stimulated) lysozyme secretion LYZ.NS, 2.5-D 384-well ENR+CD organoid differentiation
- Assay type: cell-based, mouse
- experimentalParameters: primary screen, dose 2.00 uM
measuredProperty: Dose.FC.LYZ.NS (log2 fold change)
Just the number please, in log2 fold change, no unit attached.

Given C[C@H](Oc1cc(-c2cnn(C3CCNCC3)c2)cnc1N)c1c(Cl)ccc(F)c1Cl [(S)-crizotinib] , state its recorded Dose.FC.LYZ.NS. −0.034

Given CC(C)N(CC[C@H](c1ccccc1)c1cc(CO)ccc1O)C(C)C [5-hydroxymethyl Tolterodine (PNU 200577, 5-HMT, 5-HM)] , state its recorded Dose.FC.LYZ.NS. 0.154

Given C[C@H](N[C@@H](CCc1ccccc1)C(=O)O)C(=O)N1CCC[C@H]1C(=O)O.O.O [Enalaprilat Dihydrate] , state its recorded Dose.FC.LYZ.NS. −0.022

Given `Cc1ccc([C@@H]2O[C@H](CO)[C@@H](O)[C@H](O)[C@H]2O)cc1Cc1ccc(-c2ccc(F)cc2)s1` , state its recorded Dose.FC.LYZ.NS. 0.025

Given COc1cc(Nc2ncc(F)c(Nc3ccc4c(n3)N(COP(=O)(O)O)C(=O)C(C)(C)O4)n2)cc(OC)c1OC [Fostamatinib (R788)] , state its recorded Dose.FC.LYZ.NS. −0.099

Given CCN[C@H]1CN(CCCOC)S(=O)(=O)c2sc(S(N)(=O)=O)cc21 [Brinzolamide] , state its recorded Dose.FC.LYZ.NS. 0.059

Given `O=C(O)c1cc2cccc([N+](=O)[O-])c2[nH]1` , state its recorded Dose.FC.LYZ.NS. 0.047

Given `COC1CCN(C(=O)c2cc(Cc3n[nH]c(=O)c4ccccc34)ccc2F)CC1` , state its recorded Dose.FC.LYZ.NS. −0.074

Given Cc1ccccc1C(=O)Nc1ccc(C(=O)N2CCCC(O)c3cc(Cl)ccc32)c(C)c1 (stereo not shown) , state its recorded Dose.FC.LYZ.NS. −0.023

Given `O=C(c1ccc(F)cc1)N1CCC[C@H](c2nc(-c3ccc(F)cc3)no2)C1` , state its recorded Dose.FC.LYZ.NS. −0.033

Given `CCCSc1nc(N[C@@H]2C[C@H]2c2ccc(F)c(F)c2)c2nnn([C@@H]3C[C@H](OCCO)[C@@H](O)[C@H]3O)c2n1` , state its recorded Dose.FC.LYZ.NS. 0.120

Given `CCCS(=O)(=O)Nc1ccc(F)c(C(=O)c2c[nH]c3ncc(-c4ccc(Cl)cc4)cc23)c1F` , state its recorded Dose.FC.LYZ.NS. 0.047

Given `CS(=O)(=O)c1ccc(-c2cnc(N)c(C(=O)Nc3ccccc3)n2)cc1` , state its recorded Dose.FC.LYZ.NS. 0.103

Given Cc1ccc(S(=O)(=O)NC(=O)NN2CC3CCCC3C2)cc1 (stereo not shown) [Gliclazide] , state its recorded Dose.FC.LYZ.NS. 0.104

Given `COc1cc(F)c(C(C)C)cc1-c1ccc(C(F)(F)F)cc1CN1C(=O)O[C@H](c2cc(C(F)(F)F)cc(C(F)(F)F)c2)[C@@H]1C` , state its recorded Dose.FC.LYZ.NS. −0.015

Given `O=c1ncccn1[C@@H]1O[C@H](CO)[C@@H](O)[C@H]1O` , state its recorded Dose.FC.LYZ.NS. 0.095
